- TARGET_OF_ASSAY: T1, human PD-L1 extracellular domain (human, UniProt Q9NZQ7 19-238)
- T1 construct: also called recombinant PD-L1; recombinant human PD-L1 extracellular domain protein
- METHOD: BLI (Octet Red 96), antibody on anti-human Fc biosensor, PD-L1 ECD in solution, 1:1 global fit
EXPERIMENTAL_READOUT: Kd (nM)
Enter your answer as a number in nM; do not include the unit.

Please review the following examples before continuing.
BINDER: AB3HU (humanized form of antibody AB3) (antibody, human IgG1, kappa, V domains shown, Humanized, human gamma-1 / kappa constant domains) VH: EVQLVESGGGLVQPGGSLRLSCAASGFSLSSYWMSWVRQAPGKGLEWIGVIDTNVYIYYANWAKGRFTISRDNSKNTLYLQMNSLRAEDTAVYYCARYVGNNDDYINLWGQGTLVTVSS VL: DIQMTQSPSTLSASVGDRVTITCQSSQSVYNGYWLSWYQQKPGKAPKLLIYGASTLASGVPSRFSGSGSGTEFTLTISSLQPDDFATYYCLGSYTSSTENSFGGGTKVEIKR
EXPERIMENTAL_READOUT: Kd
MEASURED: 1.81
--
BINDER: AB4 (rabbit/human chimeric anti-PD-L1 antibody) (antibody, human IgG1, kappa, V domains shown, Rabbit variable domains on human IgG1 / human kappa constant domains; also called AB4 CHIMERIC) VH: QSVEESGGRLVTPGTPLTLTCTVSGIDLSVINMGWVRQAPGEGLEWIGTITYVGNTYYASWAKGRFTISKTSTTVDLKITSPTTEDTATYFCARESGTIYYSYFNLWGQGTLVTVSS VL: AFELTQTPASVSEPVGGTVTIKCQASESISNYLSWYQQIPGQPPNLLIYYASNLASGVPSRFKGSGSGTEFTLTISDLECADAATYYCQSYYGGGSAYTFGGGTEVVVKR
EXPERIMENTAL_READOUT: Kd
MEASURED: 1.01

Ask: Give me measured Kd, please, for this binder: AB2 (rabbit/human chimeric anti-PD-L1 antibody) (antibody, human IgG1, kappa, V domains shown, Rabbit variable domains on human IgG1 / human kappa constant domains; also called AB2 CHIMERIC) VH: QSLEESGGRLVTPGTPLTLTCTTSGIDLSTYDMIWVRQAPGKGLEYIGIISYVGNTYYASWAKGRFTLSKTSTTVDLRITSPTTEDTATYFCARDFISGSHLWGPGTLVTVSS VL: AYDMTQTPASVSAAVGGTVTINCQASESISSFLSWYQQKPGQRPRLLIFSASTLASGVPSRFKGSGSGTEFTLTISGVECADAATYYCQQGYSKSNVDNAFGGGTEVVVKR
Result: 0.379
